format: physicochemical
Readings of Solubility for the listed compounds
Give your result in mg/mL as a bare value.

{"COMPOUND": "C=CC(=O)Nc1cccc(Oc2nc(Nc3ccc(N4CCN(C)CC4)cc3)nc3ccoc23)c1 [Formula 1 (Free base)]", "OUTCOME MEASURE": "Solubility", "NUMBER": 0.001}

Could you now consider this next compound?
# Solubility of C=CC(=O)Nc1cccc(Oc2nc(Nc3ccc(N4CCN(C)CC4)cc3)nc3ccoc23)c1 [Example 4] = 1.13
